# System: A549-TUBA1B-RELA
# assay: lowest phenotypically active concentration; higher = less potent
# condition details: treatment time: 24 h
quantity kind: lowest phenotypically active concentration

molecule: O=C(Cc1ccc(-c2ccc(OCCN3CCOCC3)cc2)cn1)NCc1ccccc1
result: ≤ 0.3 µM
//
molecule: CC(C)c1cc(-c2n[nH]c(=O)n2-c2ccc3c(ccn3C)c2)c(O)cc1O [ganetespib]
result: ≤ 0.3 µM
//
molecule: CCN(CCO)CCCOc1ccc2c(Nc3cc(CC(=O)Nc4cccc(F)c4)n[nH]3)ncnc2c1 [barasertib-HQPA]
result: ≤ 0.3 µM

* * *

// reported phenotypically active per item
# Test system: WPMY1-ACTB-RAB5A
# assay: phenotypically active (imaging signature differs from DMSO and reproducible) at any of 0.3-9 uM (binary (1 = active, 0 = inactive)); higher = active
# condition details: treatment time: 24 h
Structures can show the parent of a compound that is named as a salt.
quantity kind: phenotypically active

compound: O=C(O)Cc1cccc(OCCCN(Cc2cccc(C(F)(F)F)c2Cl)CC(c2ccccc2)c2ccccc2)c1 [GW 3965 hydrochloride]
result: 0 (inactive)
--
compound: COc1ccc(CCc2nc3cc(-c4c(C)noc4C)ccc3n2C[C@H](C)N2CCOCC2)cc1Cl
result: 1 (active)
--
compound: Cc1cc(Nc2cc(N3CCN(C)CC3)nc(Sc3ccc(NC(=O)C4CC4)cc3)n2)[nH]n1
result: 1 (active)
--
compound: CC(C)(C)c1ccc(C(=O)Nc2cn3cc(-n4ccnc4)ccc3n2)cc1
result: 0 (inactive)
--
compound: O=S(=O)(c1cccc2cnccc12)N1CCCNCC1
result: 1 (active)
--
compound: CC(=O)NCCCS(=O)(=O)O [acamprosate]
result: 0 (inactive)
--
compound: c1ccc2c(c1)CCCC2C1=NCCN1 (stereo not given) [tetrahydrozoline]
result: 0 (inactive)
--
compound: Cc1cc(/N=N/c2ccc(S(=O)(=O)Nc3ccccn3)cc2)c(N)cc1O
result: 1 (active)
--
compound: CN(C)CCc1c[nH]c2ccc(Cn3cncn3)cc12
result: 0 (inactive)
--
compound: Cc1c(CN2CCN(C(=O)[C@H](C)O)CC2)sc2c(N3CCOCC3)nc(-c3cnc(N)nc3)nc12
result: 1 (active)
--
compound: CNC(=O)c1c(-c2ccc(F)cc2)oc2cc(N(CCO)S(C)(=O)=O)c(C3CC3)cc12
result: 0 (inactive)
--
compound: CC(C(=O)O)c1cccc(C(=O)c2ccccc2)c1 (stereo not given)
result: 0 (inactive)
--
compound: NC1=NCC2c3ccccc3Cc3ccccc3N12 (stereo not given) [epinastine]
result: 0 (inactive)
--
compound: CCCCCCCCCCCCC/C=C/[C@@H](O)[C@H](CO)N(C)C
result: 1 (active)
--
compound: O=C(Nc1nc2cc(C(F)(F)F)cc(NC3CC3)n2n1)c1cccnc1
result: 1 (active)

* * *

# Test system: WPMY1-GM130-SQSTM1
# assay: lowest phenotypically active concentration; higher = less potent
# condition details: treatment time: 24 h
// reported lowest phenotypically active concentration per item
quantity kind: lowest phenotypically active concentration

compound: COc1ccc(-c2cc3c(C)nc(N)nc3n([C@H]3CC[C@H](OCCO)CC3)c2=O)cn1
result: ≤ 0.3 µM

compound: CO[C@H]1C[C@@H]2CC[C@@H](C)[C@@](O)(O2)C(=O)C(=O)N2CCCC[C@H]2C(=O)O[C@H]([C@H](C)C[C@@H]2CC[C@@H](OC(=O)C(C)(CO)CO)[C@H](OC)C2)CC(=O)[C@H](C)C=C(C)[C@@H](O)[C@@H](OC)C(=O)[C@H](C)C[C@H](C)C=CC=CC=C1C
result: ≤ 0.3 µM

compound: CC(C)CCN1c2nc(Nc3cc(F)c(O)c(F)c3)ncc2N(C)C(=O)C1C (centres undefined)
result: ≤ 0.3 µM

compound: CC1=C(/C=C/C(C)=C\C=C\C(C)=C\C(=O)O)C(C)(C)CCC1
result: ≤ 0.3 µM

* * *

// reported phenotypically active per item
# Tested on: WPMY1-GM130-SQSTM1
# assay: phenotypically active (imaging signature differs from DMSO and reproducible) at any of 0.3-9 uM (binary (1 = active, 0 = inactive)); higher = active
# condition details: treatment time: 24 h
quantity kind: phenotypically active

compound: NS(=O)(=O)C#Cc1ccccc1 [pifithrin-mu]
quantity kind: phenotypically active
result number: 1
--
compound: COC(=O)c1sccc1S(=O)(=O)Nc1ccc(Nc2ccccc2)cc1OC
quantity kind: phenotypically active
result number: 0
--
compound: Nc1ccc(-c2ccc3ncc4ccc(=O)n(-c5cccc(C(F)(F)F)c5)c4c3c2)cn1 [Torin 2]
quantity kind: phenotypically active
result number: 1
--
compound: CC(C)n1nc(-c2cc3cc(O)ccc3[nH]2)c2c(N)ncnc21
quantity kind: phenotypically active
result number: 1
--
compound: CS(=O)(=O)c1ccc(-c2nnc(/C=C/c3nnc(-c4ccc(C#N)cc4)o3)n2-c2ccccc2Cl)nc1
quantity kind: phenotypically active
result number: 0
--
compound: COc1ccc(-c2cc(=O)c3c(O)cc(O)cc3o2)cc1O [Diosmetin]
quantity kind: phenotypically active
result number: 0
--
compound: N[C@@H](CSC(c1ccccc1)(c1ccccc1)c1ccccc1)C(=O)O [S-Trityl-L-cysteine]
quantity kind: phenotypically active
result number: 0
--
compound: COc1cc(/C=C/c2ccc(OC)cc2OC)cc(OC)c1
quantity kind: phenotypically active
result number: 1

* * *

# System: A549-ACTB-RAB5A
# assay: phenotypically active (imaging signature differs from DMSO and reproducible) at any of 0.3-9 uM (binary (1 = active, 0 = inactive)); higher = active
# condition details: treatment time: 24 h
Where a name gives a salt, the structure may show the parent alone.

compound: O=S(=O)(c1ccccc1)N(CC(F)(F)F)c1ccc(C(O)(C(F)(F)F)C(F)(F)F)cc1
phenotypically active: 0
//
compound: COC(=O)C1=C(C)NC(C)=C(C(=O)OC)C1c1ccccc1[N+](=O)[O-]
phenotypically active: 0
//
compound: O=c1ncn2nc(Sc3ccc(F)cc3F)ccc2c1-c1c(Cl)cccc1Cl
phenotypically active: 1
//
compound: CN(C(=O)CCCOc1ccc2[nH]c(=O)ccc2c1)C1CCCCC1 [Cilostamide]
phenotypically active: 0
//
compound: COC(=O)C1CC23C=CCN4CCC5(c6ccccc6NC15[C@H]2C)C43 (stereo partly drawn) [Vindolinine dichlorhydrate]
phenotypically active: 0
//
compound: O=C(NCC1CCCCN1)c1cc(OCC(F)(F)F)ccc1OCC(F)(F)F (stereo not drawn) [flecainide]
phenotypically active: 0
//
compound: O=C1c2ccccc2C(Cc2ccncc2)(Cc2ccncc2)c2ccccc21
phenotypically active: 0
//
compound: Fc1ccccc1Nc1nc2nonc2nc1Nc1ccccc1F
phenotypically active: 1
//
compound: CN(CCOc1ccc(NS(C)(=O)=O)cc1)CCc1ccc(NS(C)(=O)=O)cc1 [dofetilide]
phenotypically active: 0
//
compound: Cc1noc(C)c1Cn1cc(C#N)c2cc(Oc3ccc(NC(=O)[C@@H]4CCCN4)cc3)ccc21
phenotypically active: 1
//
compound: COC(=O)Nc1nc2ccc(C(=O)c3cccs3)cc2[nH]1
phenotypically active: 1
//
compound: CN/C(=C/[N+](=O)[O-])NCCSCc1csc(CN(C)C)n1
phenotypically active: 0
//
compound: Nc1cc(N)c(N)cc1N
phenotypically active: 1
//
compound: CCOC(=O)[C@H](CCc1ccccc1)N[C@@H](C)C(=O)N1CCC[C@H]1C(=O)O
phenotypically active: 0
//
compound: CCOc1ccccc1OCCN[C@H](C)Cc1ccc(OC)c(S(N)(=O)=O)c1
phenotypically active: 0
//
compound: C[C@H](NC(=O)CCc1nc2ccccc2c(=O)[nH]1)c1ccccc1
phenotypically active: 0
//
compound: CC[C@]1(O)C[C@@H]2CN(CCc3c([nH]c4ccccc34)[C@@](C(=O)OC)(c3cc4c(cc3OC)N(C=O)[C@H]3[C@@](O)(C(=O)OC)[C@H](OC(C)=O)[C@]5(CC)C=CCN6CC[C@]43[C@@H]65)C2)C1
phenotypically active: 1
//
compound: CC1(C)O[C@@H]2C[C@H]3[C@@H]4C[C@H](F)C5=CC(=O)CC[C@]5(C)[C@H]4[C@@H](O)C[C@]3(C)[C@]2(C(=O)CO)O1 [flurandrenolide]
phenotypically active: 1
//
compound: Cc1ccc(-c2csc3ncnc(SCCC(=O)O)c23)cc1
phenotypically active: 0
//
compound: Oc1cccc(Nc2ccnc3cc(-c4cccc(CN5CCOCC5)c4)sc23)c1 [LCB 03-0110 dihydrochloride]
phenotypically active: 1
//
compound: CCCC(=O)Nc1ncnc2c1ncn2[C@@H]1O[C@@H]2COP(=O)(O)O[C@H]2[C@H]1OC(=O)CCC [Dibutyryl-cAMP, sodium salt]
phenotypically active: 0
//
compound: C=C[C@H]1C[N@@]2CC[C@H]1C[C@@H]2[C@@H](O)c1ccnc2ccc(OC)cc12
phenotypically active: 0
//
compound: Cn1cc(-c2[nH]c3cc(NC(=O)[C@H](N)C4CCCCC4)cc4c3c2C=NNC4=O)cn1
phenotypically active: 1

Cited source for all entries: the supplement of paper PMC7411054
